target entity: D(2) dopamine receptor (Rattus norvegicus, UniProt P61169)
Sequence (P61169 whole entry): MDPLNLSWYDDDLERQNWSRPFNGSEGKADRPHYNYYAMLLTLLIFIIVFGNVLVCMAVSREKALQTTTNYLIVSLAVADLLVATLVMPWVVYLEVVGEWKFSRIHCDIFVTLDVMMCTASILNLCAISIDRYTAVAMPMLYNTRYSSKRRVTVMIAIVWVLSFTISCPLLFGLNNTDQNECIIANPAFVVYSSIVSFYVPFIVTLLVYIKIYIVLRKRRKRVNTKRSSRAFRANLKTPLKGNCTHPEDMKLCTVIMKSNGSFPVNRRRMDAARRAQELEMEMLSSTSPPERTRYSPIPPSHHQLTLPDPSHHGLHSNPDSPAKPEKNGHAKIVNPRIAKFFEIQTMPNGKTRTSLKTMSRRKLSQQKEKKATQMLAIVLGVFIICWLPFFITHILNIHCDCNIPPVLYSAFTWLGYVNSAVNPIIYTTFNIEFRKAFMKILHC
procedure summary: Displacement of spiperone from dopamine receptor D2 of rat brain membrane
Record form. Attribute: pIC50. Fill in for each entry.
Units for pIC50: none; it is -log10 of a concentration expressed in mol/L.

Enquiry: Given the compound "CCCCN1CCC[C@H](c2cccc(O)c2)C1" , what is its reported pIC50?
Return: 6.37

Enquiry: Now give it for "CN1CCC[C@@H](c2cccc(O)c2)C1" too.
Return: 6.54

Enquiry: // same read-out, input: "CN1CCC[C@H](c2cccc(O)c2)C1"
Return: 6.21

Enquiry: # repeat for "CCc1ccc(N2CCC[C@@H](c3cccc(O)c3)C2)cc1"
Return: 7.36

Enquiry: # iterate: "CCc1ccc(N2CCC[C@H](c3cccc(O)c3)C2)cc1"
Return: 5.91
